Please go through the items and note down their self-splicing fitness (ln).
# PROTOCOL_SUMMARY: self-splicing fitness, log relative to wild type (ln ratio); higher = more splicing; Tetrahymena group I intron in knt gene, E. coli kanamycin selection, DiMSum; sequences stand for … in CUCUCU…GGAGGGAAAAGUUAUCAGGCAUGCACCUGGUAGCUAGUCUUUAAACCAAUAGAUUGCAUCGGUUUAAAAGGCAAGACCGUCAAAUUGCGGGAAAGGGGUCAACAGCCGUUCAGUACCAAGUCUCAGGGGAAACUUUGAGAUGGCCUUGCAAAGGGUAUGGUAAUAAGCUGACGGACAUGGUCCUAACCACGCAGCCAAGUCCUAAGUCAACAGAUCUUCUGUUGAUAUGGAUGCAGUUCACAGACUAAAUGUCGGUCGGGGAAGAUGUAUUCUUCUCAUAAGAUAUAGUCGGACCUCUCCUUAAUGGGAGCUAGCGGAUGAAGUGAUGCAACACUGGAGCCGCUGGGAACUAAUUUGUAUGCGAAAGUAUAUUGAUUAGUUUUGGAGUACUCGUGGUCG;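 further: selection with 25 µg/mL kanamycin versus none on LB agar overnight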
# PROTOCOL_CONDITIONS: 37 °C
Lab note: jot the number down without any unit.

Req: Requested field: self-splicing fitness (ln). Item: GUGCAGCAAUAUUACGCAUU
Resp: -2.38

Req: Same lookup for GGUUAGCAAUAUUACGUGUC , please.
Resp: -0.323

Req: Similarly, CGAUAGCAAUAUUACGGCGC ?
Resp: -0.875

Req: Also need UGGUAGCAAUAUUACGUGAU , thanks.
Resp: -1.34

Req: Continue with GAAUAGCAAUAUUACGGCCG
Resp: -0.0585

Req: One more sequence: GGCUAGCAAUAUUACGACCC
Resp: -0.966

Req: Follow-up item: AGACAGCAAUAUUACGGCGA
Resp: -0.143

Req: Field entry: CUCCAGCAAUAUUACGGGAC
Resp: -2.17

Req: Entry to check: GCCUAGCAAUAUUACGCACG
Resp: -1.43

Req: Follow-up entry: UCUAAGCAAUAUUACGUUUG
Resp: -2.4

Req: Then AGCCAGCAAUAUUACGGCGU ?
Resp: -1.44

Req: Same thing, different sequence: CCGGAGCAAUAUUACGCCUC
Resp: -2.47

Req: What would you report for UGAAAGCAAUAUUACGUCAA ?
Resp: -1.31

Req: Note, next up: CGGUAGCAAUAUUACGGAGG
Resp: -0.94

Req: Param item: CCGGAGCAAUAUUACGGUAG
Resp: -2.75

Req: How about this sequence: AGGCAGCAAUAUUACGGUUA
Resp: 0.285

Req: Also CUCAAGCAAUAUUACGAGCC , if possible.
Resp: -2.67

Req: Entry UGAUAGCAAUAUUACGGGGU please
Resp: -2.35

Req: Entry AGUCAGCAAUAUUACGGGUA please
Resp: -1.54

Req: What about UGACAGCAAUAUUACGAACA ?
Resp: -0.06

Req: Similarly, AUUCAGCAAUAUUACGACUG ?
Resp: -0.646

Req: Proceed to CGAAAGCAAUAUUACGACCG
Resp: -0.183

Req: Now the same for AAAAAGCAAUAUUACGUGUC
Resp: -1.79

Req: And for AUUAAGCAAUAUUACGUACU ?
Resp: 0.125

Req: And then CUAGAGCAAUAUUACGCAGG , what is it?
Resp: -1.75

Req: Same again, this time with CUGCAGCAAUAUUACGCCUG
Resp: -1.14

Req: Try this sequence too: CCGAAGCAAUAUUACGGCGA
Resp: -2.53

Req: Subsequent entry: UUUGAGCAAUAUUACGUUUC
Resp: -2.62

Req: And for CAGAAGCAAUAUUACGGGGG ?
Resp: -2.75

Req: How about CUUAAGCAAUAUUACGCUAG ?
Resp: -0.439

Req: Same question for AUACAGCAAUAUUACGACAU please.
Resp: 0.288

Req: Now consider CCAAAGCAAUAUUACGUUGC and answer again.
Resp: -2.12

Req: Subsequent entry: UACCAGCAAUAUUACGCCAG
Resp: -1.13

Req: For CACUAGCAAUAUUACGAACU then?
Resp: -1.99

Req: Input GGCGAGCAAUAUUACGAGCG
Resp: -0.433

Req: And what about the sequence CCCGAGCAAUAUUACGGGAG ?
Resp: -1.5

Req: Another: ACGGAGCAAUAUUACGUACU
Resp: -2.32

Req: Query CACCAGCAAUAUUACGUUGC next
Resp: -3.5

Req: Follow-up item: CACUAGCAAUAUUACGGAAG
Resp: -0.266

Req: Now the sequence CGGGAGCAAUAUUACGUAGG
Resp: -1.6

Req: And GAUUAGCAAUAUUACGGUAC ?
Resp: -0.994

Req: Also ACUUAGCAAUAUUACGCUCA , if possible.
Resp: -0.196

Req: Same question for CGCCAGCAAUAUUACGCUAA please.
Resp: -1.29

Req: // next record GGCCAGCAAUAUUACGUUUG
Resp: -2.4

Req: Now try AAGUAGCAAUAUUACGAAAA .
Resp: -2.14

Req: What about CAUUAGCAAUAUUACGGUUA ?
Resp: -0.486

Req: Record: GUCAAGCAAUAUUACGCUAA
Resp: -1.45

Req: Continue with GUACAGCAAUAUUACGCUAA
Resp: -0.948

Req: Repeat with CGGUAGCAAUAUUACGCAAU
Resp: -3.67

Req: Now the sequence UUUGAGCAAUAUUACGCUGG
Resp: -2.01

Req: Now the sequence GUGAAGCAAUAUUACGAUGG
Resp: 0.388

Req: Same again, this time with AUGGAGCAAUAUUACGGUCC
Resp: -0.466

Req: Again, but for GCCCAGCAAUAUUACGGUGC
Resp: -2.52

Req: Now consider GCGGAGCAAUAUUACGGAUG and answer again.
Resp: -1.67

Req: Also AAUCAGCAAUAUUACGCACA , if possible.
Resp: 0.0601

Req: Please do the same for ACGCAGCAAUAUUACGCCAU as well.
Resp: -2.05

Req: And UAUAAGCAAUAUUACGUCUA ?
Resp: 0.494

Req: Also GGAAAGCAAUAUUACGGAGU ?
Resp: -1.73

Req: // next record ACGGAGCAAUAUUACGAGGU
Resp: -2.5

----------
# PROTOCOL_SUMMARY: self-splicing fitness, log relative to wild type (ln ratio); higher = more splicing; Tetrahymena group I intron in knt gene, E. coli kanamycin selection, DiMSum; sequences stand for … in CUCUCU…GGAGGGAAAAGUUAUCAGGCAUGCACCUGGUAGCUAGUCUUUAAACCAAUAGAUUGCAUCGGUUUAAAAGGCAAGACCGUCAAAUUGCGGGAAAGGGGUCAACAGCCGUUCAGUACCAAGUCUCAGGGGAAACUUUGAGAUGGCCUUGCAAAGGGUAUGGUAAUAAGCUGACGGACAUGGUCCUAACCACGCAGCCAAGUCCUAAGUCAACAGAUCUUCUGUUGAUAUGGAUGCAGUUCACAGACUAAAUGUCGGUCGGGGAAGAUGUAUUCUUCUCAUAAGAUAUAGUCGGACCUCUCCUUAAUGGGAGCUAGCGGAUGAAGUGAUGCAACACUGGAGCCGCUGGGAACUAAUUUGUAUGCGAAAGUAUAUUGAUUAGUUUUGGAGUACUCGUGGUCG
# PROTOCOL_CONDITIONS: 37 °C
QUANTITY: self-splicing fitness (ln)
// return a plain number; no unit text

Req: Which self-splicing fitness (ln) value is on record for UAAGAGCAAUAUUACGAUCA ?
Resp: -0.554

Req: Cool, now CCAGAGCAAUAUUACGUAGG
Resp: -2.6

Req: What do you have for UUAUAGCAAUAUUACGUUCC ?
Resp: -2.09

Req: Another sequence to look at: UCGCAGCAAUAUUACGAUGA
Resp: 0.0326

Req: Now this one: UGCUAGCAAUAUUACGAGUU
Resp: 0.518

Req: What do we get for GGUAAGCAAUAUUACGGCGA ?
Resp: -0.26

Req: And UGGGAGCAAUAUUACGCCAU ?
Resp: -0.288

Req: Again, but for UCGUAGCAAUAUUACGGAGA
Resp: -2.53

Req: Entry to check: CGCCAGCAAUAUUACGUUAA
Resp: -2.57

Req: Follow-up item: CGACAGCAAUAUUACGCGCU
Resp: -1.91

Req: Moving on to UGCGAGCAAUAUUACGACGG
Resp: -0.347

Req: What would you report for GGGGAGCAAUAUUACGGCAU ?
Resp: -1.53

Req: Next sequence: CUACAGCAAUAUUACGUCUC
Resp: -2.55
